Below, each of the molecules is paired with its reported melting point value.
Value expressed in °C; do not type the unit.

Cl.Fc1ccc(C(Oc2ccccc2Cl)C2CNC2)cc1Cl (stereo not shown) = 188
CCOC(c1ccccc1)C1CNC1.Cl (stereo not shown) = 205
Cl.Fc1cccc(OC(c2ccc3ccccc3c2)C2CNC2)c1 (stereo not shown) = 216
Cc1ccc(OC(c2ccc(F)c(Cl)c2)C2CNC2)cc1.Cl (stereo not shown) = 183
Cl.Fc1ccc(OC(c2ccc(Cl)c(Cl)c2)C2CNC2)cc1 (stereo not shown) = 210

Suppose we examine the molecule Cl.Clc1cccc(OC(c2ccc3ccccc3c2)C2CNC2)c1 (stereo not shown) ; what melting point value has been reported?
214

Suppose we examine the molecule CCOC(c1ccc(Cl)c(F)c1)C1CNC1.Cl (stereo not shown) ; what melting point value has been reported?
215

Suppose we examine the molecule Cl.Fc1ccc(OC(c2ccc3ccccc3c2)C2CNC2)cc1F (stereo not shown) ; what melting point value has been reported?
212

----------
Below, each of the compounds is paired with its reported melting point value.
Value expressed in °C; do not type the unit.

The following compounds have reported results that may help.
Cl.Fc1ccc(C(Oc2ccccc2F)C2CNC2)cc1Cl (centres unmarked) = 194
Cc1cccc(OC(c2ccc(Cl)c(Cl)c2)C2CNC2)c1.Cl (centres unmarked) = 200
Cl.Clc1ccc(C(Oc2ccccc2)C2CNC2)cc1 (centres unmarked) = 191
COC(c1ccc(Cl)cc1)C1CNC1.Cl (centres unmarked) = 281

# next compound below
Suppose we examine the compound Cl.Clc1ccc(C(OCc2ccccc2)C2CNC2)cc1 (centres unmarked) ; what melting point value has been reported?
184
